Reference for the values: patent US10398142B2

- System: CA-MRSA (USA300-0114)
- Test Description: Minimum inhibitory concentration (MIC), broth microdilution
- Format: cell-based, Staphylococcus aureus
- Stated Conditions: Table 4; USA300-0114; read-out: MIC CA-MRSA
Value Kind: MIC (µM)
Response body: numeric value in µM, unit text excluded.

Compound Structure: CCCCCCCCCCCC[n+]1cccc(-c2ccc[n+](Cc3ccccc3)c2)c1.[Br-].[Br-]
MIC, µM: 16
--
Compound Structure: CCCCCCCCCCCC[N+](C)(C)CCCN(C)CCC[N+](C)(C)CCCCCCCCCCCC.[Br-].[Br-]
MIC, µM: 1
--
Compound Structure: CCCCCCCCCCCCCCCC[N+](C)(C)CCCCC[N+](C)(C)CCCCCCCCCCCCCCCC.[Br-].[Br-]
MIC, µM: 8

Note: attention shifts to another entry.
Data point: CCCCCCCCCCCC[N+](C)(C)CCC[N+](C)(C)CCCCCCCCCCCC.[Br-].[Br-] ; MIC = 1

* * *

- Tested on: Staphylococcus aureus MSSA (SH1000)
- Test Description: Minimum inhibitory concentration (MIC), broth microdilution
- Assay type: cell-based
- Stated Conditions: Table 4; SH1000; read-out: MIC MSSA
Value Kind: MIC (µM)
Just the number please, in µM, no unit attached.

Compound: CCCCCCCCCCCC[N+](C)(C)CCCCC[N+](C)(C)CCCCCCCCCCCC.[Br-].[Br-] [12,5,12]
MIC (µM): 2
//
Compound: CCCCCCCCCCCC[n+]1ccc(-c2cc[n+](CCCCCCCCCCCC)cc2)cc1.[Br-].[Br-] [PQ-12,12]
MIC (µM): 1

Case CCCCCCCCCCCC[N+](C)(C)CCN(C)CCN(C)CC[N+](C)(C)CCCCCCCCCCCC.[Br-].[Br-] [N4-12,0,0,12] , Staphylococcus aureus MSSA (SH1000), MIC recorded as 1

* * *

- Tested on: red blood cells (defibrinated sheep blood)
- Test Description: Hemolysis assay (Lysis20)
- Stated Conditions: Table 4; concentration at which less than 20% of red blood cells are lysed
The following molecules are shown together with reported Lysis20 values.
Hi! Could you send only the number? It should be in µM, unit omitted.

Some entries whose results are on file:
Molecule: C=CC[N+](C)(CCC[N+](C)(C)CCCCCCCCCCCC)CCC[N+](C)(C)CCCCCCCCCCCC.[Br-].[Br-].[Br-]
Test Target: red blood cells (defibrinated sheep blood)
Value Kind: Lysis20
Recorded Number: 8
--
Molecule: CCCCCCCCCCCC[N+](C)(C)CCN(C)CC[N+](C)(C)CCCCCCCCCCCC.[Br-].[Br-]
Test Target: red blood cells (defibrinated sheep blood)
Value Kind: Lysis20
Recorded Number: 8
--
Molecule: C=CC[N+](C)(CC[N+](C)(C)CCCCCCCCCCCC)CC[N+](C)(CC=C)CC[N+](C)(C)CCCCCCCCCCCC.[Br-].[Br-].[Br-].[Br-] (stereo not shown)
Test Target: red blood cells (defibrinated sheep blood)
Value Kind: Lysis20
Recorded Number: 8

Now consider the entry below.
# Lysis20 (molecule: CCCCCCCCCCCC[n+]1ccc(-c2ccc[n+](CCCCCCCCCCCC)c2)cc1.[Br-].[Br-] ) is 8

* * *

Reported MBEC E. faecalis values for a set of compounds
- Test system: E. faecalis biofilms
- Test Description: Minimum biofilm eradication concentration (MBEC), regrowth assay
- Assay type: cell-based, Enterococcus faecalis
- Stated Conditions: Table 2; pre-established biofilm; ± values varied between 50 and 100 μM for the six trials
The response must be a number in µM with no trailing unit.

The following compounds have reported results that may help.
Compound: CCCCCCCCCCCC[N+](C)(C)CCC[N+](C)(C)CCC[N+](C)(C)CCCCCCCCCCCC.[Br-].[Br-].[I-]
MBEC E. faecalis [µM]: 50
--
Compound: CCCCCCCCCCC[n+]1ccc(-c2cc[n+](CCCCCCCCCCC)cc2)cc1
MBEC E. faecalis [µM]: 50
--
Compound: CCCCCCCCCCCC[N+](C)(C)CC[N+](C)(C)CC[N+](C)(C)CCCCCCCCCCCC.[Br-].[Br-].[I-]
MBEC E. faecalis [µM]: 25

Input CCCCCCCCCCCC[N+](C)(C)CCN(C)CC[N+](C)(C)CCCCCCCCCCCC.[Br-].[Br-] . Output MBEC E. faecalis: 100

Query CCCCCCCCCCCC[N+](C)(C)Cc1ccccc1.[Cl-] [Bn,12, benzyldimethyldodecylammonium chloride, reference compound] yields MBEC E. faecalis of 200
